tested on: 171881-019-R-J1-PDC complex spheroid growth, % test/control; assay: Anticancer human tumor 171881-019-R-J1-PDC patient-derived invasive breast carcinoma cell line growth inhibition [Asc]; settings: second compound 0.3 µM; first compound 0.0316 µM; hits give low values;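 note: spheroids exposed to compounds for 7 days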
experimental-readout: viability, T/C (%)
Report the figure in % without appending any unit label.

molecule	unit-of-measure	number
Cn1ncnc1[C@H]1c2n[nH]c(=O)c3cc(F)cc(c23)N[C@@H]1c1ccc(F)cc1 + CCN1C(C(=O)NC23CCC(C(=O)O)(CC2)CC3)C(c2cccc(Cl)c2F)C2(C(=O)Nc3cc(Cl)ccc32)C12CCCCC2	%	109
NC1CCC(NC2CC2c2ccccc2)CC1 (stereo not given) + CCN1C(C(=O)NC23CCC(C(=O)O)(CC2)CC3)C(c2cccc(Cl)c2F)C2(C(=O)Nc3cc(Cl)ccc32)C12CCCCC2	%	125
C=CC(=O)N1CCN(c2nc(=O)n(-c3c(C)ccnc3C(C)C)c3nc(-c4c(O)cccc4F)c(F)cc23)C(C)C1 (stereo not given) + CCN1C(C(=O)NC23CCC(C(=O)O)(CC2)CC3)C(c2cccc(Cl)c2F)C2(C(=O)Nc3cc(Cl)ccc32)C12CCCCC2	%	116
CNC(C)C(=O)NC1CN(S(=O)(=O)c2cccc(S(=O)(=O)N3CCC4CCC(C(=O)NC(c5ccccc5)c5ccccc5)N4C(=O)C(NC(=O)C(C)NC)C3)c2)CCC2CCC(C(=O)NC(c3ccccc3)c3ccccc3)N2C1=O (stereo not given) + CCN1C(C(=O)NC23CCC(C(=O)O)(CC2)CC3)C(c2cccc(Cl)c2F)C2(C(=O)Nc3cc(Cl)ccc32)C12CCCCC2	%	103
CCN1CCN(Cc2ccc(Nc3ncc(F)c(-c4cc(F)c5nc(C)n(C(C)C)c5c4)n3)nc2)CC1 + CCN1C(C(=O)NC23CCC(C(=O)O)(CC2)CC3)C(c2cccc(Cl)c2F)C2(C(=O)Nc3cc(Cl)ccc32)C12CCCCC2	%	109
C=C(F)C(=O)N1CCN(c2nc(OCC3CCCN3C)nc3c2CCN(c2cccc4cccc(Cl)c24)C3)CC1CC#N (stereo not given) + CCN1C(C(=O)NC23CCC(C(=O)O)(CC2)CC3)C(c2cccc(Cl)c2F)C2(C(=O)Nc3cc(Cl)ccc32)C12CCCCC2	%	117

Notebook: pull reported viability, T/C for 171881-019-R-J1-PDC complex spheroid growth, % test/control, entry O=C(c1cc(Cc2n[nH]c(=O)c3ccccc23)ccc1F)N1CCN(C(=O)C2CC2)CC1 + CCN1C(C(=O)NC23CCC(C(=O)O)(CC2)CC3)C(c2cccc(Cl)c2F)C2(C(=O)Nc3cc(Cl)ccc32)C12CCCCC2
102

Would you mind doing COc1c(OCCCN2CCOCC2)ccc2c3n(c(=NC(=O)c4cnc(N)nc4)nc12)CCN3 + CCN1C(C(=O)NC23CCC(C(=O)O)(CC2)CC3)C(c2cccc(Cl)c2F)C2(C(=O)Nc3cc(Cl)ccc32)C12CCCCC2 as well?
53.8

How about O=C(c1ccc(F)c(F)c1Nc1ccc(I)cc1F)N1CC(O)([C@@H]2CCCCN2)C1 + CCN1C(C(=O)NC23CCC(C(=O)O)(CC2)CC3)C(c2cccc(Cl)c2F)C2(C(=O)Nc3cc(Cl)ccc32)C12CCCCC2 ?
132

Also C#Cc1c(F)ccc2cc(O)cc(-c3ncc4c(N5CC6CCC(C5)N6)nc(OCC56CCCN5CC(F)C6)nc4c3F)c12 (stereo not given) + CCN1C(C(=O)NC23CCC(C(=O)O)(CC2)CC3)C(c2cccc(Cl)c2F)C2(C(=O)Nc3cc(Cl)ccc32)C12CCCCC2 ?
120

Cited source for all entries: PubChem BioAssay AID1963428
